Target or test system: ARHGEF12, Q9NZN5-2
Sequence (Q9NZN5 other isoform, or with tags, fused parts or gaps): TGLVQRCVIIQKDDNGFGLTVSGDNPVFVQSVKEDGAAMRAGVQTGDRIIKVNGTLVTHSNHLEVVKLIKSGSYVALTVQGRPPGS
Experimental protocol: holdup assay
Set-up: key: below the threshold = too weak to quantify, mostly under pKd 3.1 to 4
Setup conditions: plain residues with an end cap or a label only (N-terminal biotin on a linker: ado-ado)
Measured endpoint: pKd
Respond with the number and no other words.

Problem: Quick one: pKd for QRPYRRGSEI [KCNJ18, B7U540] ?
Result: 3.74

Problem: Input PPGKHLVTEV [KCNA7, Q96RP8]
Result: 5.22
